Assay: Plasma pharmacokinetics and brain distribution in mice
Format: in vivo, male BALB/c mice
Conditions: male, BALB/c, mouse, iv; i.v. 2 mg/kg, plasma; back extrapolated conc.; read-out: C0
measurement-type: C0 (ng/mL)

CNCCN(C)c1cc(C#N)cc(CCc2cc(C)cc(N)n2)c1 [Compound 19c]
472

---

Assay: Plasma pharmacokinetics and brain distribution in mice
Format: in vivo, male BALB/c mice
Conditions: male, BALB/c, mouse, po; p.o. 10 mg/kg, plasma
measurement-type: AUC(0-inf) (ng·h/mL)

CNCCN(C)c1cc(C#N)cc(CCc2cc(C)cc(N)n2)c1 [Compound 19c]
182
